All values here come from patent US20230071840A1.

# System tested: GLP-1 Receptor (Homo sapiens)
# Assay info: GLP-1R agonist cAMP stimulation assay (HEK293/GLP1R/CRE-LUC cells, cAMP dynamic 2 kit)
# Type: cell-based
# Experimental context: GLP1R cAMP Stimulation DR: EC50 (nM)
Endpoint: EC50 (nM)

>>> val("CC(c1cccc(OC2CCN(Cc3nc4ccc(C(=O)O)nc4n3C[C@@H]3CCO3)CC2)n1)c1ccc(Cl)cc1F (stereo partly shown) [Compound 128a]")
1.2

---

# System tested: GLP-1 Receptor (Homo sapiens)
# Assay info: GLP-1R agonist cAMP stimulation assay (HEK293/GLP1R/CRE-LUC cells, cAMP dynamic 2 kit)
# Assay type: cell-based
# Experimental context: HEK293/CRE-Luc cell line stably expressing the GLP-1 Receptor; 30 min incubation at 37° C.; read-out: GLP1R cAMP Stimulation DR: EC50
pEC50: −log10 of the molar value.
Endpoint: pEC50

>>> val("N#CC1(Cn2c(CN3CCC(Oc4ccnc(Cc5ccc(Cl)cc5F)n4)CC3)nc3ccc(C(=O)O)cc32)CC1 [Compound 162]")
10.12
>>> val("O=C(O)c1ccc2nc(CN3CCC(Oc4cccc(Cc5ccc(C(F)(F)F)cc5)n4)CC3)n(C[C@@H]3CCO3)c2n1 [Compound 145a]")
8.47
>>> val("O=C(O)c1ccc2nc(CN3CCC(Oc4cccc(Cn5ccc(Cl)cc5=O)n4)CC3)n(C[C@@H]3CCO3)c2n1 [Compound 149a]")
8.25
>>> val("O=C(O)c1ccc2nc(CN3CCC(Oc4ccnc(Cc5ccc(Cl)cc5)n4)CC3)n(C[C@@H]3CCO3)c2n1 [Compound 152a]")
10.42

---

Each entry below lists one item and its recorded EC50 value.
# System tested: GLP-1 Receptor (Homo sapiens, UniProt P43220)
# Sequence (P43220 24-463, species assumed): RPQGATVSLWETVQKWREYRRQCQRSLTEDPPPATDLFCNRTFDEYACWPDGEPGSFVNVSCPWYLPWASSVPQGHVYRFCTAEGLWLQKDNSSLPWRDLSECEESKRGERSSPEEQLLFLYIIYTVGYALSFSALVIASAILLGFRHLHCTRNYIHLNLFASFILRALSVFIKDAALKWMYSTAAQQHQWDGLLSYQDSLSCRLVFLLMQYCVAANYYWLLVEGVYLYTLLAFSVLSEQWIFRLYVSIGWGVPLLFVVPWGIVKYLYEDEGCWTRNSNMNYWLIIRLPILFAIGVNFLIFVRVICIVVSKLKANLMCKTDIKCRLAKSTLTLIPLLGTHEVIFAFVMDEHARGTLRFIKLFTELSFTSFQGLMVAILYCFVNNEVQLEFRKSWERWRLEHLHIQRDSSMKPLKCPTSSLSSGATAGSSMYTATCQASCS
# Assay info: GLP-1R agonist cAMP stimulation assay (HEK293/GLP1R/CRE-LUC cells, cAMP dynamic 2 kit)
# Format: cell-based
# Experimental context: HEK293/CRE-Luc cell line stably expressing the GLP-1 Receptor; 30 min incubation at 37° C.; read-out: GLP1R cAMP Stimulation DR: EC50
Endpoint: EC50 (nM)

>>> val("Cc1cn(Cc2ccc(Cl)cc2F)nc1OC1CCN(Cc2nc3ccc(C(=O)O)nc3n2C[C@@H]2CCO2)CC1 [Compound 133a]")
2.4
>>> val("O=C(O)c1ccc2nc(CN3CC=C(c4cnc5ccc(Cc6ccc(Cl)cc6F)nn45)CC3)n(C[C@@H]3CCO3)c2n1 [Compound 192a]")
130
>>> val("O=C(O)c1ccc2nc(CN3CCC(Oc4cccc(Cc5ccc(Cl)cc5)n4)CC3)n(C[C@@H]3CCO3)c2n1 [Compound 124a]")
0.043
>>> val("O=C(O)c1ccc2nc(CN3CCC(Oc4ccnc(Cc5ccc(Cl)c(Cl)c5)n4)CC3)n(C[C@@H]3CCO3)c2n1 [Compound 167a]")
0.13

---

Each entry below lists one item and its recorded EC50 value.
# System tested: GLP-1 Receptor (Homo sapiens, UniProt P43220)
# Assay info: GLP-1R agonist cAMP stimulation assay (HEK293/GLP1R/CRE-LUC cells, cAMP dynamic 2 kit)
# Assay type: cell-based
# Experimental context: HEK293/CRE-Luc cell line stably expressing the GLP-1 Receptor; 30 min incubation at 37° C.; read-out: GLP1R cAMP Stimulation DR: EC50
Endpoint: EC50 (nM)

>>> val("O=C(O)c1ccc2nc(Cc3ccc(Oc4ccnc(Cc5ccc(Cl)cc5)n4)cc3)n(C[C@@H]3CCO3)c2c1 [Compound 187a]")
1.3
>>> val("Cc1cc(Cc2ccc(Cl)cc2)nc(OC2CCN(Cc3nc4ccc(C(=O)O)nc4n3C[C@@H]3CCO3)CC2)c1 [Compound 154a]")
24
>>> val("O=C(O)c1ccc2nc(CN3CCC(Oc4cc(Cl)cc(Cc5ccc(Cl)cc5)n4)CC3)n(C[C@@H]3CCO3)c2n1 [Compound 155a]")
3.8
>>> val("O=C(O)c1ccc2nc(CN3CCC(Oc4cccc(Cc5ccc(Cl)cc5F)n4)C3)n(C[C@@H]3CCO3)c2n1 (stereo partly shown) [Compound 130a]")
53
>>> val("O=C(O)c1ccc2nc(CN3CCC(Oc4cncc(Cc5ccc(Cl)cc5)n4)CC3)n(C[C@@H]3CCO3)c2n1 [Compound 153a]")
0.14
>>> val("O=C(O)c1ccc2nc(CN3CCC(Oc4ccnc(Cc5ccc(C(F)(F)F)cc5F)n4)CC3)n(C[C@@H]3CCO3)c2n1 [Compound 163a]")
0.11
>>> val("O=C(O)c1ccc2nc(CN3CCC(Oc4cccc(Cc5ccc(C6CC6)cc5)n4)CC3)n(C[C@@H]3CCO3)c2n1 [Compound 146a]")
0.62
>>> val("O=c1[nH]c(-c2ccc3nc(CN4CCC(Oc5ccnc(Cc6ccc(Cl)cc6)n5)CC4)n(C[C@@H]4CCO4)c3n2)no1 [Compound 198a]")
0.7
>>> val("O=C(O)c1ccc2nc(CN3CCC(Oc4cccc(Cc5ccc(Cl)cc5)c4F)CC3)n(C[C@@H]3CCO3)c2n1 [Compound 157a]")
42
>>> val("O=C(O)c1ccc2nc(C[C@H]3CC[C@@H](Oc4cccc(Cc5ccc(Cl)cc5F)n4)CC3)n(C[C@@H]3CCO3)c2n1 [Compound 174a]")
29
